Protocol details: Solubility in aqueous solutions (Table 3)
Type: physicochemical
Experimental conditions: aqueous solution, pH 5.2, aqueous buffer
Property label: solubility

Q: Recorded solubility of "CC(=O)c1ccc2c(c1)[C@H](NC(=O)c1ccc(F)c(Cl)c1)[C@H](OC(=O)[C@H](C)NC(=O)[C@@H](N)CC(C)C)C(C)(C)O2.Cl" , please.
Result: > 10000 µg/mL

----------
Protocol details: Solubility in aqueous solutions (Table 3)
Format: physicochemical
Experimental conditions: aqueous solution, pH 5.1, aqueous buffer
Property label: solubility

Q: I would be grateful if you could share the reported solubility for "CC(=O)c1ccc2c(c1)[C@H](NC(=O)c1ccc(F)c(Cl)c1)[C@H](OC(=O)CNC(=O)CN)C(C)(C)O2.Cl" .
Result: > 10000 µg/mL
